Reference for the values: the supplement of paper PMC6555819

Test system: FXR:RXRa (NR concentration 270 nM, RXRa partner concentration 90 nM)
assay: PBM binding z-score (relative to random genomic background probes); higher = stronger binding; sequences stand for … in GC…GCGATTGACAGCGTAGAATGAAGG
endpoint_name: PBM binding z-score
One number for each entry.

Each sequence below has a reported value. Please supply its PBM binding z-score.
1. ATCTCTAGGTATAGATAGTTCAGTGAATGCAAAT
2. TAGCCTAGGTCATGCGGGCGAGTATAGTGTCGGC
3. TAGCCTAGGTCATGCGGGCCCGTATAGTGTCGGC
4. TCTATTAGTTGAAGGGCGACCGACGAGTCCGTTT
5. CTACCAAGGTGAACAAGGTTGTTGATTACTATTC
6. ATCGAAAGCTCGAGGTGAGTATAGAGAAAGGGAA
7. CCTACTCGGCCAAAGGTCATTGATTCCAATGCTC
8. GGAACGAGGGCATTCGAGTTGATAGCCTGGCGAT

0.0439
3.79
3.96
0.994
0.708
-0.382
4.86
0.904

###

Tested on: VDR:RXRa (NR concentration 270 nM, RXRa partner concentration 90 nM)
assay: PBM binding z-score (relative to random genomic background probes); higher = stronger binding; sequences stand for … in GC…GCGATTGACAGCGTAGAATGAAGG
endpoint_name: PBM binding z-score
Numbers only.

Each sequence below has a reported value. Please supply its PBM binding z-score.
1. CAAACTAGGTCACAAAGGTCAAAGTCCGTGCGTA
2. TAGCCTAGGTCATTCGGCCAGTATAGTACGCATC
3. CCTACTGGGCCACGATAGGTCATTGATTCAGTGA
4. CCTCGGAGGATAGAAGGTCAGAGCTGTCCGCTTT
5. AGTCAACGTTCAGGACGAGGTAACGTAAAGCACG
6. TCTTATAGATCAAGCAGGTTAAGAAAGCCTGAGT

7.28
2.24
1.15
0.755
-0.317
0.894

Each sequence below has a reported value. Please supply its PBM binding z-score.
1. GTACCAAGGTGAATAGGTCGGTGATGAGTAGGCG
2. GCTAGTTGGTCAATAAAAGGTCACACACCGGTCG

1. 0.312
2. 4.16

Each sequence below has a reported value. Please supply its PBM binding z-score.
1. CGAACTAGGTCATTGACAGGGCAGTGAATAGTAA
2. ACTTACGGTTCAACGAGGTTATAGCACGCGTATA
3. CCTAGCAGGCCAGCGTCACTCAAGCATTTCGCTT
4. AGAATGAGGGTACCAAAGATCAGGGAAACGCTTG

[2.15, 7.06, -0.645, 0.0257]

###

Tested on: VDR homodimer (NR concentration 270 nM)
assay: PBM binding z-score (relative to random genomic background probes); higher = stronger binding; sequences stand for … in GC…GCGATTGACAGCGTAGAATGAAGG
I'd appreciate it if you could supply PBM binding z-score values for the items below.
Answers are plain numbers.

TCTAGTTGGTCAAAGGTAACACACTCGAAATGCG = 0.995
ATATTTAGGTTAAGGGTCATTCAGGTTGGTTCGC = 5.16
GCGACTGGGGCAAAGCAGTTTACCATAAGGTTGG = -0.185
ATATGTAGGTTAAGGGTCAATCAGGTTGGTTCGC = 3.33
CGTCCCAGGTCAGCAGGTCAGTGAAAGCGACGTG = 0.573

Each sequence below has a reported value. Please supply its PBM binding z-score.
1. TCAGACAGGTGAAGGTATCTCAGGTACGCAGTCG
2. ACAGACAGGCGAGTGAAGGTAACTCAGCTGGACG
3. TCATATAGGTAAAAGGTGCAAGTCGGTGTGGTAA
4. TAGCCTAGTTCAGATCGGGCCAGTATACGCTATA
5. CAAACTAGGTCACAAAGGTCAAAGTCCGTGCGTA
6. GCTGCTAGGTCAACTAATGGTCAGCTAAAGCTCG

[0.113, -0.484, 0.772, 0.117, 6.7, -0.0577]

// sequence CAGCTTAGGTCAGGGCCAGTATAGGAGGAACGTT , assay VDR homodimer (NR concentration 270 nM), PBM binding z-score value: 0.105

###

I'd appreciate it if you could supply PBM binding z-score values for the items below.
Tested on: RXRa DBDmut IVT, anti-RXR (DBD mutation: RXRa K156A/R161A, NR concentration 90 nM)
assay: PBM binding z-score (relative to random genomic background probes); higher = stronger binding; sequences stand for … in GC…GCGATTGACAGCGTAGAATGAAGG
Give bare numbers.

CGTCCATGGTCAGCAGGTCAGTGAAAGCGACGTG = -0.144
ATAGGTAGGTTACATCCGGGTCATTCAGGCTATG = 0.326
ATATGTAGGTTAGCTGGGGTTATTCAGACTAGGC = 0.972

Each sequence below has a reported value. Please supply its PBM binding z-score.
1. GCTCGGAGGACAAGGTCAGATCTTTGTCCGTAGA
2. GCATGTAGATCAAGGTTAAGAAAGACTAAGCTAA
3. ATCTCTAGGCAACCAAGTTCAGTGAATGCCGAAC
4. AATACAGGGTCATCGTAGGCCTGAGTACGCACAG
5. TCTTGTAGATCAGCAGGAGGTTAAGAAAGATCGA
6. CCTAGTTGGTCAAGGTCACACACGCTATAGGTAC
7. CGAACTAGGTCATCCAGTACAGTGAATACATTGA
8. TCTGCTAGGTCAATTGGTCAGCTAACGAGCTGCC

[0.628, 0.0216, 0.688, 3.34, 0.327, 2.36, 2.61, 1.21]

Record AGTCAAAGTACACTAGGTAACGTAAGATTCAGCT . Reported PBM binding z-score: 1.11

###

Tested on: PPARg:RXRa (NR concentration 180 nM, RXRa partner concentration 90 nM)
assay: PBM binding z-score (relative to random genomic background probes); higher = stronger binding; sequences stand for … in GC…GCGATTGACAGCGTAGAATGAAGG
endpoint_name: PBM binding z-score
Answers are plain numbers.

// known answers, use as guide
ATCTCTGGGTAAAGATAGTTCAGTGAATGCAAAT = 0.419
TAAATGAGGTTAAAGATCAGGGAACGTGGCGTCG = 6.76
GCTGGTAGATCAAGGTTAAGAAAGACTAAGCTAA = 0.134
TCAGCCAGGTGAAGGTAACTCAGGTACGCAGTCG = 0.4
ATCTCTATGTAAAAGTTCAGTGAATCCCGAGGAT = 3.27

Each sequence below has a reported value. Please supply its PBM binding z-score.
1. GCGACTGGGGCAAGGCAGGTTACCATAAGGTTGG
2. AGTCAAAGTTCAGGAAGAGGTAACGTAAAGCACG

1: 0.978; 2: 4.98

Each sequence below has a reported value. Please supply its PBM binding z-score.
1. TCTTGTAGATCAATAAAGGTTAAGAAAGTGCGCT
2. CGTACTGGGCCAAAGGTCATTGATTCCAATGCTC
3. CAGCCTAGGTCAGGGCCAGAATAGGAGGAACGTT
4. TCATCTAGGTAAATGCTAGGTGAAAGTCCGATCT

1: 0.49; 2: 12.7; 3: 1.06; 4: 0.51

Each sequence below has a reported value. Please supply its PBM binding z-score.
1. AGTCAAAGTTCAGGACGAGGTAACGCAAAGCACG
2. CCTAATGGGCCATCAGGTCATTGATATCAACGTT
3. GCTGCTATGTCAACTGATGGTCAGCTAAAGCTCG
4. AGTAAAAGTTCATCTAGGTAACGTAAGATATGCT
5. CCAGACAGGTGAAAGGTTACTCAGTCTGGTACGC
6. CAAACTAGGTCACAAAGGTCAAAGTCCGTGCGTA
7. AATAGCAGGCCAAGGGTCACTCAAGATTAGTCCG

1: 4.31; 2: 1.5; 3: -0.143; 4: 3.98; 5: 7.6; 6: 10.3; 7: 8.33

###

Test system: LXRa:RXRa (NR concentration 270 nM, RXRa partner concentration 90 nM)
assay: PBM binding z-score (relative to random genomic background probes); higher = stronger binding; sequences stand for … in GC…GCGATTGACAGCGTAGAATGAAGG
I'd appreciate it if you could supply PBM binding z-score values for the items below.
Answers are plain numbers.

Each sequence below has a reported value. Please supply its PBM binding z-score.
1. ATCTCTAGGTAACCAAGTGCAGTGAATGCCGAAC
2. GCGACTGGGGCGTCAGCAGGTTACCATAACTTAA
3. TCATATAGGTAATACAGGTGAAAGTGGGCATCTA
4. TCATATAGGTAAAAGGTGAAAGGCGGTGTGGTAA
5. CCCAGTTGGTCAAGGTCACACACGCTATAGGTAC
6. CGAACTATGTCATCCAGGACAGTGAATACATTGA

1: 0.0225; 2: -0.378; 3: 1.27; 4: 1.88; 5: 4.03; 6: -0.0297

Each sequence below has a reported value. Please supply its PBM binding z-score.
1. ATCTCTAGGAAAAAGTTCAGTGAATCCCGAGGAT
2. GCGACTGGGGCATAAGCAGGTTACCATAACTTAA
3. ACAGACAGGTGATGAGGGTAACTCAGGCTATCAT
4. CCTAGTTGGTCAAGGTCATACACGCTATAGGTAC

0.275
0.177
-0.0236
4.27

Each sequence below has a reported value. Please supply its PBM binding z-score.
1. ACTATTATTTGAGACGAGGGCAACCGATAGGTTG
2. GTACCAAGGTAAATAGGTCGTTGATGAGTAGGCG
3. CATCCAAGGTCATAGGAGGTCAGTGAAGACAGAT
4. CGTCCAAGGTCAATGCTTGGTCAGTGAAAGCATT
5. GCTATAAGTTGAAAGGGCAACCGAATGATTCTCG
6. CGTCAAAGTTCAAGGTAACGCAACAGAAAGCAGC
7. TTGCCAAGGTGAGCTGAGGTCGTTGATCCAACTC

1. 0.912
2. 0.228
3. 7.88
4. 4.57
5. 1.24
6. 5.28
7. 0.918
